- System: K562 CRISPRi cells
- experimental.details: Constant region variant library pooled growth screen, K562
- Type: cell-based, human
- measurement.setup: sgRNA constant region variants; activity relative to the original, un-modified constant region cr995
- Source text: We calculated relative activities for each targeting sequence:constant region pair by normalizing its phenotype to that of the targeting sequence paired with the unmodified constant region, identifying 409 constant region variants that on average conferred intermediate activity (0.1-0.9, FIG. 5B). Ten variants selected for individual evaluation also mediated intermediate levels of mRNA knockdown (FIG. 6B). […]
quantity.kind: Mean relative activity

Consider the following illustrative entries.
cr455 (nucleic acid, listed as DNA, chemistry not fully specified) guide: GTTTAAGAGCTAAGCTGGAAACAGCATAGCAAGTTTAAATAAGGCTAGTCCGTTATCAATTGGAAACAATGGCACCGAGTCGGTGCT :: 1.031
cr916 (nucleic acid, listed as DNA, chemistry not fully specified) guide: GTTTAAGAGCTAAGCTGGAAACAGCATAGCAAGTTTAAATAAGACTAGTTCGTTATCAACTTGAGAAAGTGGCACCGAGTCGGTGCT :: 0.8207
cr833 (nucleic acid, listed as DNA, chemistry not fully specified) guide: GTTTAAGAGCTAAGCTGGAAACAGCATCGCAACTTTAAATAAGGCTAGTCCGTTATCAACTTGAAAAAGTCGCACCGAGTCGGTGCT :: 0.004215
cr094 (nucleic acid, listed as DNA, chemistry not fully specified) guide: GATTTAGAGCTAAGCTGGAAACAGCATAGCAAGTTTAAATAAGGCTAGTCCGTTATCAACTTGAAAAAGTGGCACCGAGTCGGTGCT :: 0.004414
cr535 (nucleic acid, listed as DNA, chemistry not fully specified) guide: GTTTAAGAGCTAAGCTGGAAACAGCATAGCAAGTTTAAATAAGGCTAGTCAGTTATCAACTTGAAAAAGTGGCACCGAGTCGGTGCT :: −0.0004281

Value sought for every listed molecule: Mean relative activity.
1. cr497 (nucleic acid, listed as DNA, chemistry not fully specified) guide: GTTTAAGAGCTAAGCTGGAAACAGCATAGCAAGTTTAAATAAGGCTAGTCCGTTATCAACTTGAGAAAGTGGAACCGAGTCGGTTCT
2. cr350 (nucleic acid, listed as DNA, chemistry not fully specified) guide: GTTTAAGAGCTAAGCTGGAAACAGCATAGCAAGCTTAAATAATGCTAGTCAGTTATCAACTTGAAAAAGTGGCACCGAGTCGGTGCT
3. cr514 (nucleic acid, listed as DNA, chemistry not fully specified) guide: GTTTAAGAGCTAAGCTGGAAACAGCATAGCAACTTTAAATAAGGCTAGTCCGTTATCAACTTGAAAAAGTGGGACCGAGTCGGTCCT
4. cr017 (nucleic acid, listed as DNA, chemistry not fully specified) guide: GTTTAGGAGCTAAGCTGGAAACAGCATAGCAAGTTTAAATAAGGCTAGTCCGTTATCAACTTGAAAAAGTGGCACCGAGTCGGTGCT
5. cr078 (nucleic acid, listed as DNA, chemistry not fully specified) guide: GTTTTGGAGCTAAGCTGGAAACAGCATAGCAAGTTTAAATAAGGCTAGTCCGTTATCAACTTGAAAAAGTGGCACCGAGTCGGTGCT
6. cr617 (nucleic acid, listed as DNA, chemistry not fully specified) guide: GTTTAAGAGCTAAGCTGGAAACAGCATAGCAAGTTTAAATAAGGTTAATCCGTTATCAGCGTGAAAACGCGGCACCGAGTCGGTGCT
7. cr338 (nucleic acid, listed as DNA, chemistry not fully specified) guide: GTTTAAGAGCTAAGCTGGAAACAGCATAGCAAGTCTAAATAAGGCGAGTCCGTTATCAACTTGAAAAAGTGGCACCGAGTCGGTGCT

OUT:
[1.028, 0.001423, 0.05776, 0.639, 0.03507, 1.058, 0.5831]

Each of the following entries comes with a recorded value; kindly state Mean relative activity for each.
1. cr068 (nucleic acid, listed as DNA, chemistry not fully specified) guide: GTTAGAGAGCTAAGCTGGAAACAGCATAGCAAGTTTAAATAAGGCTAGTCCGTTATCAACTTGAAAAAGTGGCACCGAGTCGGTGCT
2. cr989 (nucleic acid, listed as DNA, chemistry not fully specified) guide: GTTTAAGAGCTAAGCTGGAAACAGCATAGCAAGTTTAAATAAGGCTAGTCCGTTATCAACTTGAAAAAATGGCACCGAGTCGGTGCT

OUT:
1: 0.002959; 2: 0.5623
